The reported measurements were obtained from patent US12281225B2.

- PROTOCOL SUMMARY: Analysis of active substance: preservative concentration before and after storage in VI-containing polymer solution
- Format: physicochemical
- CONDITION: in Polymer P4; storage 60 d at 40° C.
Binary call on active-substance concentration, 60 d 40° C.: class 1 from 100 ppm upward, class 0 beneath that.

Solved entries:
Cn1sccc1=O [MIT, methyl-4-isothiazolin-3-one]
class 1
CCCCCCCCn1sc(Cl)c(Cl)c1=O [DCOIT, dichloroctylisothiazolinone]
class 1
CCCCCCCCCCCCCCCC[N+](C)(C)Cc1ccccc1.[Cl-] [Polymer 16-BAC, cetylalkonium chloride]
class 1
CCCCCCCCn1sccc1=O [OIT, octylisothiazolinone]
class 0
Cn1sc(Cl)cc1=O [CMIT, 5-chloro-N-methylisothiazolin-3-one]
class 0

Ask: Confirm if active-substance concentration, 60 d 40° C. reported for the compound CCCCCCCCCC[N+](C)(C)CCCCCCCCCC.[Cl-] [DDAC, didecyldimethylammonium chloride] is 100 ppm or above.
Result: class 1

Ask: Quick check: does O=c1[nH]sc2ccccc12 [BIT, 1,2-benzisothiazolin-3-one] have active-substance concentration, 60 d 40° C. greater than or equal to 100 ppm?
Result: class 0

* * *

- Tested on: Yeast: Candida albicans, Candida valida, Rhodotorula rura, Saccharomyces cerevisiae
- PROTOCOL SUMMARY: Preservation test with periodic inoculation, yeast assessment
- Assay type: cell-based
- CONDITION: Polymer P3; freshly formulated
ASSAY ENDPOINT: Start sample measurement, yeast assess., 4th inoculation

Ask: // map CCCCCCCCn1sccc1=O to recorded Start sample measurement, yeast assess., 4th inoculation (system: Yeast: Candida albicans, Candida valida, Rhodotorula rura, Saccharomyces cerevisiae)
Result: 0 (moderate growth, max. 400 colonies)

* * *

- Tested on: Yeast: Candida albicans, Candida valida, Rhodotorula rura, Saccharomyces cerevisiae
- PROTOCOL SUMMARY: Preservation test with periodic inoculation, yeast assessment
- Type: cell-based
- CONDITION: Polymer P6; sample stored 60 d at 40° C.
- Description: Microbiological results at the start (freshly formulated, i.e. 4-week test series is started immediately) and after 60 days of storage at 40° C. (i.e. the 4-week microbial testing is started with the sample stored at 40° C. for 60 days) […]
ASSAY ENDPOINT: 60 d 40° C., yeast assess., 4th inoculation

Would you please look over these solved cases?
Cn1sc(Cl)cc1=O [CMIT, 5-chloro-N-methylisothiazolin-3-one]
+
Cn1sccc1=O [MIT, methyl-4-isothiazolin-3-one]
++
CCCCCCCCCCCCCCCC[n+]1ccccc1 [CPC, cetylpyridinium chloride]
0 (moderate growth, max. 400 colonies)
CCCCCCCCn1sccc1=O [OIT, octylisothiazolinone]
++
CCCCNC(=O)OCC#CI [Iodopropynyl butyl carbamate, iodopropynyl butyl carbamate]
+
O=c1[nH]sc2ccccc12 [BIT, 1,2-benzisothiazolin-3-one]
++

Ask: Value lookup for 60 d 40° C., yeast assess., 4th inoculation; key = CCCCCCCCn1sc(Cl)c(Cl)c1=O [DCOIT, dichloroctylisothiazolinone]
Result: +

* * *

- PROTOCOL SUMMARY: Analysis of active substance: preservative concentration before and after storage in VI-containing polymer solution
- Type: physicochemical
- CONDITION: in Polymer P5 (HP56); storage 60 d at 40° C.
Exercise: state measured active-substance concentration, 60 d 40° C. for each of the molecules provided.
One number for each entry, in ppm.

See these solved cases before continuing.
Cn1sc(Cl)cc1=O [CMIT, 5-chloro-N-methylisothiazolin-3-one]
59
Cn1sccc1=O [MIT, methyl-4-isothiazolin-3-one]
94
CCCCNC(=O)OCC#CI [Iodopropynyl butyl carbamate, iodopropynyl butyl carbamate]
84
O=c1[nH]sc2ccccc12 [BIT, 1,2-benzisothiazolin-3-one]
69
CCCCCCCCn1sc(Cl)c(Cl)c1=O [DCOIT, dichloroctylisothiazolinone]
94

For every item below, please supply its active-substance concentration, 60 d 40° C..
1. CCCCCCCCn1sccc1=O [OIT, octylisothiazolinone]
2. CCCCCCCCCC[N+](C)(C)CCCCCCCCCC.[Cl-] [DDAC, didecyldimethylammonium chloride]
3. CCCCCCCCCCCCCCCC[N+](C)(C)Cc1ccccc1.[Cl-] [Polymer 16-BAC, cetylalkonium chloride]

Result:
1. 72
2. 940
3. 940
